Tested on: Splenocytes (B cell proliferation stimulated with anti-IgM F(ab′)2)
RUN DESCRIPTION: Splenic Cell Proliferation Assay
Format: cell-based
EXPERIMENTAL CONTEXT: Mus musculus, Splenocyte, 72 h, CD1 mouse splenocytes, 2.5 ug/ml anti-IgM F(ab′)2 for 72 h, Cell Titer-Glo; read-out: EC50 (nM), Inhibition of splenic cell proliferation
OBSERVABLE: EC50

Cn1cncc1COc1cc(F)cc(Oc2ccc(-c3nn(CCO)c4ncnc(N)c34)cc2)c1 : 100 to 1000 nM
Cc1ccc(COc2cc(F)cc(Oc3ccc(-c4nn(CCCO)c5ncnc(N)c45)cc3)c2)cn1 : < 100 nM
[2H]C([2H])(Oc1cc(F)cc(Oc2ccc(-c3nn(C4CCOCC4)c4ncnc(N)c34)cc2)c1)c1cncn1C : < 100 nM
Nc1ncnc2c1c(-c1ccc(Oc3cccc(OCc4cncs4)c3)cc1)nn2CCN1CCCC1 : 100 to 1000 nM
Nc1ncnc2c1c(-c1ccc(Oc3cc(F)cc(CCc4cccnc4)c3)cc1)nn2C1CCOCC1 : 100 to 1000 nM
Nc1ncnc2c1c(-c1ccc(Oc3cc(F)cc(OCc4cncn4CCOCc4ccccc4)c3)cc1)nn2C1CCOCC1 : 100 to 1000 nM
Cc1ncc(COc2cccc(Oc3ccc(-c4nn(C5CCOCC5)c5ncnc(N)c45)cc3)c2)s1 : < 100 nM
CC(=O)N1CCC[C@@H](n2nc(-c3ccc(Oc4cccc(COc5ccccc5C#N)c4)cc3)c3c(N)ncnc32)C1 : < 100 nM
COc1cccc(COc2cccc(Oc3ccc(-c4nn(C5CCCC5)c5ncnc(N)c45)cc3)c2)c1 : 100 to 1000 nM
Cc1ncc(COc2cc(F)cc(Oc3ccc(-c4nn(C5CCOCC5)c5ncnc(N)c45)cc3)c2)n1C : < 100 nM
CCCC(=O)N1CCC[C@@H](n2nc(-c3ccc(Oc4cccc(OCc5ccccc5)c4)cc3)c3c(N)ncnc32)C1 : 100 to 1000 nM
Cc1ncc(COc2cc(F)cc(Oc3ccc(-c4nn(CCCN5CCOCC5)c5ncnc(N)c45)cc3)c2)s1 : < 100 nM
Cn1cncc1COc1cc(F)cc(Oc2ccc(-c3nn(C4CCOCC4)c4ncnc(N)c34)cc2F)c1 : 100 to 1000 nM
Cc1ncc(COc2cc(F)cc(Oc3ccc(-c4nn(CC5(C)COC5)c5ncnc(N)c45)cc3)c2)cn1 : 100 to 1000 nM
Cn1cncc1CCc1cc(F)cc(Oc2ccc(-c3nn(C4CCOCC4)c4ncnc(N)c34)cc2)c1 : 100 to 1000 nM

---

System: Splenocytes (B cell proliferation stimulated with anti-IgM F(ab′)2)
RUN DESCRIPTION: Splenic Cell Proliferation Assay
Type: cell-based
EXPERIMENTAL CONTEXT: Mus musculus, Splenocyte, 72 h, CD1 mouse splenocytes, 2.5 ug/ml anti-IgM F(ab′)2 for 72 h, Cell Titer-Glo; read-out: EC50 (nM), Inhibition of splenic cell proliferation
OBSERVABLE: EC50

Nc1ncnc2c1c(-c1ccc(Oc3cccc(OCc4cncs4)c3)cc1)nn2CCN1CCOCC1 : < 100 nM
CC(C)(C)OC(=O)N1CCC[C@@H](n2nc(-c3ccc(Oc4cccc(OCc5ccccc5)c4)cc3)c3c(N)ncnc32)C1 : 100 to 1000 nM
Cn1nc(-c2ccc(Oc3cccc(OCc4cncs4)c3)cc2)c2c(N)ncnc21 : 100 to 1000 nM
Cc1ncc(COc2cc(F)cc(Oc3ccc(-c4nn(CCN5CCOCC5)c5ncnc(N)c45)cc3)c2)s1 : < 100 nM

---

Each entry below carries its recorded EC50.
System: Splenocytes (B cell proliferation stimulated with anti-IgM F(ab′)2)
RUN DESCRIPTION: Splenic Cell Proliferation Assay
Format: cell-based
EXPERIMENTAL CONTEXT: Mus musculus, Splenocyte, 72 h, CD1 mouse splenocytes, 2.5 ug/ml anti-IgM F(ab′)2 for 72 h, Cell Titer-Glo; read-out: EC50 (nM), Inhibition of splenic cell proliferation
OBSERVABLE: EC50

CC(=O)N1CCC(n2nc(-c3ccc(Oc4cccc(OCc5cncs5)c4)cc3)c3c(N)ncnc32)CC1 : < 100 nM
Nc1ncnc2c1c(-c1ccc(Oc3cccc(OCc4cncs4)c3)cc1)nn2C1CCCNC1 (stereo not drawn) : < 100 nM
CC(=O)N1CCC[C@@H](n2nc(-c3ccc(Oc4cccc(OCc5ccccc5C(F)(F)F)c4)cc3)c3c(N)ncnc32)C1 : < 100 nM
Cc1ncc(COc2cc(F)cc(Oc3ccc(-c4nn(C5CCCC5)c5ncnc(N)c45)cc3)c2)s1 : < 100 nM
Cc1ncc(COc2cc(F)cc(Oc3ccc(-c4nn(CC5(C)COC5)c5ncnc(N)c45)cc3)c2)n1C : 100 to 1000 nM
Cn1nc(-c2ccc(Oc3cccc(COc4ccccc4C(F)(F)F)c3)cc2)c2c(N)ncnc21 : 100 to 1000 nM
Cc1ncc(COc2cc(F)cc(Oc3ccc(-c4nn(CCN5CCCC5)c5ncnc(N)c45)cc3)c2)s1 : 100 to 1000 nM
Nc1ncnc2c1c(-c1ccc(Oc3cc(F)cc(OCc4cncs4)c3)cc1)nn2C1CCOCC1 : < 100 nM
CCn1cncc1COc1cc(F)cc(Oc2ccc(-c3nn(C4CCOCC4)c4ncnc(N)c34)cc2)c1 : < 100 nM
Cc1ccc(COc2cc(F)cc(Oc3ccc(-c4nn(C5CCOCC5)c5ncnc(N)c45)cc3)c2)cn1 : < 100 nM
Cc1ncc(COc2cc(F)cc(Oc3ccc(-c4nn(C(C)C)c5ncnc(N)c45)cc3)c2)s1 : < 100 nM
CC(=O)N1CCC[C@@H](n2nc(-c3ccc(Oc4cccc(COc5ccccc5C(F)(F)F)c4)cc3)c3c(N)ncnc32)C1 : < 100 nM
Cc1ncc(COc2cc(F)cc(Oc3ccc(-c4nn(C(CO)CO)c5ncnc(N)c45)cc3)c2)s1 : < 100 nM
Cc1ncc(COc2cc(F)cc(Oc3ccc(-c4nn(C5CCCC5)c5ncnc(N)c45)cc3)c2)cn1 : < 100 nM
Cc1ncc(COc2cccc(Oc3ccc(-c4nn(C5CCOCC5)c5ncnc(N)c45)c(F)c3)c2)s1 : < 100 nM

---

System: Splenocytes (B cell proliferation stimulated with anti-IgM F(ab′)2)
RUN DESCRIPTION: Splenic Cell Proliferation Assay
Assay type: cell-based
EXPERIMENTAL CONTEXT: Mus musculus, Splenocyte, 72 h, CD1 mouse splenocytes, 2.5 ug/ml anti-IgM F(ab′)2 for 72 h, Cell Titer-Glo; read-out: EC50 (nM), Inhibition of splenic cell proliferation
OBSERVABLE: EC50

Cc1ncc(COc2cc(F)cc(Oc3ccc(-c4nn(C)c5ncnc(N)c45)cc3)c2)s1 : 100 to 1000 nM
Cn1cncc1COc1cc(F)cc(Oc2ccc(-c3nn(C4CCCC4)c4ncnc(N)c34)c(F)c2)c1 : < 100 nM
Nc1ncnc2c1c(-c1ccc(Oc3cccc(OCc4ccccc4C(F)(F)F)c3)cc1)nn2C1CCCC1 : < 100 nM
Cc1ncc(COc2cc(F)cc(Oc3ccc(-c4nn(CC(C)(C)O)c5ncnc(N)c45)cc3)c2)n1C : 100 to 1000 nM
Nc1ncnc2c1c(-c1ccc(Oc3cccc(OCc4ccccc4C(F)(F)F)c3)cc1)nn2C1CCOCC1 : < 100 nM
Cc1ccc(COc2cc(F)cc(Oc3ccc(-c4nn(CC5(C)COC5)c5ncnc(N)c45)cc3)c2)cn1 : 100 to 1000 nM
Cc1ncc(COc2cccc(Oc3ccc(-c4nn(C5CCCC5)c5ncnc(N)c45)cc3)c2)s1 : < 100 nM

---

Test system: Splenocytes (B cell proliferation stimulated with anti-IgM F(ab′)2)
RUN DESCRIPTION: Splenic Cell Proliferation Assay
Type: cell-based
EXPERIMENTAL CONTEXT: Mus musculus, Splenocyte, 72 h, CD1 mouse splenocytes, 2.5 ug/ml anti-IgM F(ab′)2 for 72 h, Cell Titer-Glo; read-out: EC50 (nM), Inhibition of splenic cell proliferation
Procedure: Splenic Cell Proliferation Assay Splenocytes were obtained from 6 week old male CD1 mice (Charles River Laboratories Inc.). […] Cell proliferation was measured by Cell Titer-Glo Luminescent Assay (Promega). EC50 values (50% proliferation in the presence of compound as compared to vehicle treated controls) were calculated from dose response compound curves using GraphPad Prism Software.
Each entry below carries its recorded EC50.
OBSERVABLE: EC50

Cn1cncc1COc1cc(F)cc(Oc2ccc(-c3nn(CCCO)c4ncnc(N)c34)cc2)c1 [Compound 116] : < 100 nM
Cc1ncc(COc2cc(F)cc(Oc3ccc(-c4nn(CCO)c5ncnc(N)c45)cc3)c2)n1C [Compound 115] : 100 to 1000 nM
N#Cc1ccccc1COc1cccc(Oc2ccc(-c3nn(C4CCCC4)c4ncnc(N)c34)cc2)c1 [Compound 12] : 100 to 1000 nM
Cc1ncc(COc2cc(F)cc(Oc3ccc(-c4nn(C5CCOCC5)c5ncnc(N)c45)cc3)c2)cn1 [Compound 106] : < 100 nM
Nc1ncnc2c1c(-c1ccc(Oc3cc(F)cc(CCc4ccccn4)c3)cc1)nn2C1CCOCC1 [Compound 86] : 100 to 1000 nM
Nc1ncnc2[nH]nc(-c3ccc(Oc4cccc(OCc5ccccc5)c4)cc3)c12 [Compound 1] : 100 to 1000 nM
Cc1ncc(COc2cc(F)cc(Oc3ccc(-c4nn(C(C)(C)C)c5ncnc(N)c45)cc3)c2)cn1 [Compound 129] : < 100 nM
Cn1nc(-c2ccc(Oc3cccc(OCc4ccccc4C(F)(F)F)c3)cc2)c2c(N)ncnc21 [Compound 20] : < 100 nM
